Subject Of Test: recombinant human MMP13 catalytic domain (CD) (Homo sapiens, UniProt P45452)
Construct: catalytic domain (CD) construct encompassing residues 20-274 (SWISS-PROT P45452)
Assay Comment: MMP-13 catalytic domain FRET enzyme assay
Cond: recombinant human MMP-13 catalytic domain
Protocol: A recombinant human MMP13 catalytic domain (CD) construct encompassing residues 20-274 (SWISS-PROT P45452) was generated by synthetic gene methods and bacterial expression. […] The assay is based on the cleavage of this substrate by MMP-13, resulting in decrease of FRET between the donor-acceptor pair and subsequent fluorescence enhancement. […] Fluorescence was measured on a Victor V5 plate reader (Perkin Elmer, Turku, Finland). […]
pIC50: −log10 of the molar value.
Metric Name: pIC50

## Input Return the recorded pIC50 value; entry: COc1cc(CNC(=O)c2cc(C3=NOC(c4cncnc4)C3)nc(C)n2)ccc1F (stereo not drawn)
## Output 7.00 to 8.00

## Input Return the recorded pIC50 value; entry: COc1cc(CNC(=O)c2cc(C3=NOC(c4ccc(-c5nc(C)no5)cn4)C3)nc(C)n2)ccc1F (stereo not drawn)
## Output > 8.00

## Input Return the recorded pIC50 value; entry: Cc1nc(C(=O)NCc2ccc(F)c(F)c2)cc(C2=NOC(c3ccc(C#N)nn3)C2)n1 (stereo not drawn)
## Output 7.00 to 8.00

## Input Return the recorded pIC50 value; entry: COc1cc(CNC(=O)c2cc(C3=NOC(C4CCN(C(=O)CCN(C)C)CC4)C3)nc(C)n2)ccc1F (stereo not drawn)
## Output 7.00 to 8.00

## Input Return the recorded pIC50 value; entry: Cc1nc(C(=O)NCc2ccc3c(c2)NC(=O)CO3)cc(C2=NOC(c3ccc(=O)n(C4CC4)c3)C2)n1 (stereo not drawn)
## Output > 8.00

## Input Return the recorded pIC50 value; entry: COc1cc(CNC(=O)c2cc(C3=NO[C@H]([C@H]4CO[C@H](CNC(=O)CO)CO4)C3)nc(C)n2)ccc1F
## Output > 8.00

## Input Return the recorded pIC50 value; entry: COc1cc(CNC(=O)c2cc(C3=NOC(c4ccc(C#N)cn4)C3)nc(C)n2)ccc1F (stereo not drawn)
## Output > 8.00

## Input Return the recorded pIC50 value; entry: COc1cc(CNC(=O)c2cc(C3=NOC(c4ccncc4)C3)nc(C)n2)ccc1F (stereo not drawn)
## Output > 8.00

## Input Return the recorded pIC50 value; entry: COc1ccc(CNC(=O)c2cc(C3=NOC(c4ccc(N5CCCCC5)cc4)C3)nc(C)n2)cc1 (stereo not drawn)
## Output 6.00 to 7.00

====

Subject Of Test: recombinant human MMP13 catalytic domain (CD) (Homo sapiens)
Construct: catalytic domain (CD) construct encompassing residues 20-274 (SWISS-PROT P45452)
Assay Comment: MMP-13 catalytic domain FRET enzyme assay
Cond: recombinant human MMP-13 catalytic domain
pIC50: −log10 of the molar value.
Metric Name: pIC50

## Input Return the recorded pIC50 value; entry: COc1cc(CNC(=O)c2cc(C3CC(c4ccc(OCCO)cc4)=NO3)nc(C)n2)ccc1F (stereo not shown)
## Output 7.00 to 8.00

## Input Return the recorded pIC50 value; entry: COc1cc(CNC(=O)c2cc(C3=NOC(C4CCN(C(=O)N(C)C)CC4)C3)nc(C)n2)ccc1F (stereo not shown) [drawing 1061]
## Output > 8.00

## Input Return the recorded pIC50 value; entry: COc1cc(CNC(=O)c2cc(C3=NOC(c4ccc(C(C)(C)O)cc4)C3)nc(C)n2)ccc1F (stereo not shown)
## Output 7.00 to 8.00

## Input Return the recorded pIC50 value; entry: Cc1nc(C(=O)NCc2ccc(F)c(Cl)c2)cc(C2=NO[C@H]([C@H]3CC[C@H](NC(=O)[C@H](C)O)CC3)C2)n1
## Output > 8.00

====

Subject Of Test: recombinant human MMP13 catalytic domain (CD) (Homo sapiens, UniProt P45452)
Construct: catalytic domain (CD) construct encompassing residues 20-274 (SWISS-PROT P45452)
Assay Comment: MMP-13 catalytic domain FRET enzyme assay
Cond: recombinant human MMP-13 catalytic domain
pIC50: −log10 of the molar value.
Metric Name: pIC50

## Input Return the recorded pIC50 value; entry: Cc1nc(C(=O)NCc2ccc3c(c2)NC(=O)CC3)cc(C2=NO[C@@H]([C@H]3CO[C@H](CO)CO3)C2)n1
## Output 6.00 to 7.00

## Input Return the recorded pIC50 value; entry: COc1cc(CNC(=O)c2cc(C3=NOC(CC4CCN(C(=O)CO)CC4)C3)nc(C)n2)ccc1F (stereo not shown)
## Output 7.00 to 8.00

## Input Return the recorded pIC50 value; entry: COc1cc(CNC(=O)c2cc(C3=NOC([C@H]4CC[C@H](NS(N)(=O)=O)CC4)C3)nc(C)n2)ccc1F (stereo partly shown)
## Output > 8.00

## Input Return the recorded pIC50 value; entry: Cc1nc(C(=O)NCc2cccc(F)c2)cc(C2=NO[C@@H]([C@H]3CO[C@H](CO)CO3)C2)n1
## Output < 6.00

## Input Return the recorded pIC50 value; entry: COc1cc(CNC(=O)c2cc(C3=NO[C@@H]([C@H]4CO[C@H](CO)CO4)C3)nc(C)n2)ccc1F [drawing 837]
## Output 6.00 to 7.00

## Input Return the recorded pIC50 value; entry: COc1cc(CNC(=O)c2cc(C3=NOC(c4ccn(C)c(=O)c4)C3)nc(C)n2)ccc1F (stereo not shown)
## Output 7.00 to 8.00

## Input Return the recorded pIC50 value; entry: COc1ccc(CNC(=O)c2cc(C3CC(c4ccc(OCCO)cc4)=NO3)nc(C)n2)cc1 (stereo not shown)
## Output 7.00 to 8.00

## Input Return the recorded pIC50 value; entry: CNC(=O)[C@H]1CC[C@H](C2CC(c3cc(C(=O)NCc4ccc(F)c(OC)c4)nc(C)n3)=NO2)CC1 (stereo partly shown)
## Output > 8.00

## Input Return the recorded pIC50 value; entry: COc1cc(CNC(=O)c2cc(C3=NOC([C@H]4CC[C@H](NC(=O)NCCO)CC4)C3)nc(C)n2)ccc1F (stereo partly shown)
## Output > 8.00

## Input Return the recorded pIC50 value; entry: CC(=O)N[C@H]1CC[C@H](C2CC(c3cc(C(=O)NCc4ccc(F)c(C)c4)nc(C)n3)=NO2)CC1 (stereo partly shown)
## Output > 8.00

## Input Return the recorded pIC50 value; entry: COc1cc(CNC(=O)c2cc(C3=NOC(c4cnc5[nH]ncc5c4)C3)nc(C)n2)ccc1F (stereo not shown)
## Output 7.00 to 8.00

## Input Return the recorded pIC50 value; entry: Cc1nc(C(=O)NCc2ccncc2)cc(C2=NO[C@@H]([C@H]3CO[C@H](CO)CO3)C2)n1
## Output < 6.00

## Input Return the recorded pIC50 value; entry: COc1cc(CNC(=O)c2cc(C3=NOC(c4ccnc(C(N)=O)c4)C3)nc(C)n2)ccc1F (stereo not shown)
## Output 7.00 to 8.00

## Input Return the recorded pIC50 value; entry: Cc1nc(C(=O)NCc2ccc(F)c(Cl)c2)cc(C2=NOC(c3ccc(=O)n(C)c3)C2)n1 (stereo not shown)
## Output > 8.00

## Input Return the recorded pIC50 value; entry: Cc1nc(C(=O)NCc2ccc(F)cc2)cc(C2=NOC(c3ccccn3)C2)n1 (stereo not shown)
## Output 7.00 to 8.00

## Input Return the recorded pIC50 value; entry: COc1cc(CNC(=O)c2cc(C3=NOC(c4ccc(C(N)=O)cc4)C3)nc(C)n2)ccc1F (stereo not shown)
## Output > 8.00

## Input Return the recorded pIC50 value; entry: COc1cc(CNC(=O)c2cc(C3=NOC(C4CCN(C(=O)CNC(C)=O)CC4)C3)nc(C)n2)ccc1F (stereo not shown) [drawing 879]
## Output 7.00 to 8.00

## Input Return the recorded pIC50 value; entry: COc1cc(CNC(=O)c2cc(C3CC(c4ccccc4)=NO3)nc(C)n2)ccc1F (stereo not shown)
## Output 7.00 to 8.00

## Input Return the recorded pIC50 value; entry: COc1cc(CNC(=O)c2cc(C3=NO[C@@H]([C@H]4CC[C@H](NC(=O)[C@H](C)O)CC4)C3)nc(C)n2)ccc1F
## Output 7.00 to 8.00

## Input Return the recorded pIC50 value; entry: COc1cc(CNC(=O)c2cc(C3=NOC(C4CCOCC4)C3)nc(C)n2)ccc1F (stereo not shown)
## Output > 8.00

## Input Return the recorded pIC50 value; entry: CC(=O)N[C@H]1CC[C@H](C2CC(c3cc(C(=O)NCc4ccc(F)cc4)nc(C)n3)=NO2)CC1 (stereo partly shown)
## Output 7.00 to 8.00

## Input Return the recorded pIC50 value; entry: COc1cc([C@H](C)NC(=O)c2cc(C3=NOC(c4ccccc4)C3)nc(C)n2)ccc1F (stereo partly shown)
## Output < 6.00

## Input Return the recorded pIC50 value; entry: COc1ccc(CNC(=O)c2cc(C3=NO[C@H]([C@H]4CO[C@@H](CO)CO4)C3)nc(C)n2)cc1 [drawing 923]
## Output < 6.00

## Input Return the recorded pIC50 value; entry: COc1cc(CNC(=O)c2cc(C3=NOC(C4CCN(C(=O)N(C)C)CC4)C3)nc(C)n2)ccc1F (stereo not shown) [drawing 876]
## Output > 8.00

## Input Return the recorded pIC50 value; entry: Cc1cccc(CNC(=O)c2cc(C3=NO[C@@H]([C@H]4CO[C@H](CO)CO4)C3)nc(C)n2)c1
## Output < 6.00
